Listing of entries alongside the reported Post-Emergence Activity LOLPE.
test system: Lolium perenne (LOLPE); assay: Example A post-emergence herbicidal test, glasshouse; type: in vivo; conditions: rate 125 g/ha, evaluated 14 or 15 days later, 100=total damage to plant, 0=no damage to plant
METRIC: Post-Emergence Activity LOLPE

COMPOUND | VALUE
Cc1sc(-c2ccc(Cl)cc2)cc1C1C(=O)C(C)(C)OC(C)(C)C1=O [Compound T12] | 70
CCc1sc(-c2ccc(Cl)cc2)nc1C1C(=O)C(C)(C)OC(C)(C)C1=O [Compound T11] | 60
Cc1[se]c(-c2ccc(Cl)cc2)nc1C1C(=O)C(C)(C)OC(C)(C)C1=O [Compound T16] | 60
CCc1sc(-c2ccc(Cl)cc2)nc1C1C(=O)C(C)(C)C(=O)C(C)(C)C1=O [Compound T6] | 30
Cc1sc(-c2ccc(Cl)cc2)nc1C1C(=O)C(C)(C)OC(C)(C)C1=O [Compound T13] | 70

All values here come from patent US8956999B2.
